Can you tell me protein stability index for the items I'm about to list?
# ASSAY_EXPLANATION: protein stability index of a GFP-peptide fusion (yeast GPS) (PSI 1-4); higher = more stable; sorted into four equal gates, so the index is relative within each strain
# TEST_CONTEXT: san1∆

Which protein stability index reading was recorded for the sequence ITIDSVVDANGCVNSLI [YMR129W/POM152] ?
3.05

Which protein stability index reading was recorded for the sequence EEKPDVTYSDVGGCKDQ [RPT1] ?
3.04

Which protein stability index reading was recorded for the sequence IESNKLAGVLYESRNVA [RRP6] ?
3.07

Which protein stability index reading was recorded for the sequence TKCSTVVKASELDQFWQ [SRP14] ?
2.04

Which protein stability index reading was recorded for the sequence GLWGFSTATRNVTMIDD [COR1] ?
3.02

Which protein stability index reading was recorded for the sequence DEEETAEGQTNSISDFL [RPN1] ?
2.94

Which protein stability index reading was recorded for the sequence MDNPRKLSKILRTEYGW [SNU114] ?
2.91

Which protein stability index reading was recorded for the sequence VKKVQLGKKGVPYVVTH [RPS4A] ?
3.06

Which protein stability index reading was recorded for the sequence QTPAEKHAFMGTLKKDL [RPL3] ?
2.96

Which protein stability index reading was recorded for the sequence DKKEMTIYNNIREGQNQ [SIR3] ?
3.02

Which protein stability index reading was recorded for the sequence LEQLAQHTTESDNISRK [RPB2] ?
3.01

Which protein stability index reading was recorded for the sequence AYELRTKSKEQLASQLV [RPL35A] ?
2.93

Which protein stability index reading was recorded for the sequence FREAIVATEPLLDILVK [PRP8] ?
1.96

====

# ASSAY_EXPLANATION: protein stability index of a GFP-peptide fusion (yeast GPS) (PSI 1-4); higher = more stable; sorted into four equal gates, so the index is relative within each strain
# TEST_CONTEXT: ubr1∆
Could you label it yes if measured protein stability index is 3 or higher, and no otherwise?

Could you tell me if the measured protein stability index of VKIRATGGTRTKTPGPG [RPS14A] reaches 3 or more?
yes

Could you tell me if the measured protein stability index of KAHPNFPIALQWTGGRG [FAS1] reaches 3 or more?
no

Could you tell me if the measured protein stability index of AKGFYHTPMVNFESISA [SRB8] reaches 3 or more?
no

Could you tell me if the measured protein stability index of FMHDPSVFYNIANMVLP [SIR2] reaches 3 or more?
no

Could you tell me if the measured protein stability index of KIRPWRTFRLNECVCTP [RPO31] reaches 3 or more?
no

Could you tell me if the measured protein stability index of FILADAGLEITSDNLLT [RPP1B] reaches 3 or more?
no

Could you tell me if the measured protein stability index of LWKLLSTVKVSDLNLTD [YLR018C/POM34] reaches 3 or more?
no

Could you tell me if the measured protein stability index of KSHVLLATPVQFELLSR [BRR2] reaches 3 or more?
no

Could you tell me if the measured protein stability index of AGGQRIVDDYWESLAKK [SWP82] reaches 3 or more?
no

Could you tell me if the measured protein stability index of QTKEIKTERVEDQKVVD [RPL6B] reaches 3 or more?
yes

Could you tell me if the measured protein stability index of PDEAIEKVFNAYPAARE [FAS1] reaches 3 or more?
yes

Could you tell me if the measured protein stability index of ETNLQTFLPPLLLKLAS [ECM29] reaches 3 or more?
no

Could you tell me if the measured protein stability index of LVHGIFGAKMSRTLILS [SIN4] reaches 3 or more?
no

Could you tell me if the measured protein stability index of EKKLMQDNKQLYQIWIV [YDL116W/NUP84] reaches 3 or more?
no

Could you tell me if the measured protein stability index of KINPFGFEQVKIALGSP [RRI2] reaches 3 or more?
no

Could you tell me if the measured protein stability index of SVSGSPRPSYSSRPNVN [YMR129W/POM152] reaches 3 or more?
no

Could you tell me if the measured protein stability index of STTTSLHVPNLQPPKTS [SMC4] reaches 3 or more?
no

Could you tell me if the measured protein stability index of TGAPPYYYNTKIYKLEN [YMR129W/POM152] reaches 3 or more?
yes

Could you tell me if the measured protein stability index of FIRYDVKTPKKTKYILQ [CSN12] reaches 3 or more?
no

Could you tell me if the measured protein stability index of KAALERLKVFEGIPPPY [RPL16A] reaches 3 or more?
no

Could you tell me if the measured protein stability index of KAPEAEQVLSAAATFPI [RPL13A] reaches 3 or more?
no

Could you tell me if the measured protein stability index of GSADIGASVISLTKDKS [SIR4] reaches 3 or more?
yes

Could you tell me if the measured protein stability index of NAYGFIEWCSRCNDNLM [YJL039C/NUP192] reaches 3 or more?
no

Could you tell me if the measured protein stability index of DGGKTLRACAANVDQIS [YMR129W/POM152] reaches 3 or more?
no

Could you tell me if the measured protein stability index of PTATPSPFRPLEKTSRI [YMR153W/NUP53] reaches 3 or more?
no

Could you tell me if the measured protein stability index of ESENFKIIALQPNEISF [RGR1] reaches 3 or more?
no

Could you tell me if the measured protein stability index of VMDTIQEQITLYDHWDK [SSN8] reaches 3 or more?
no

====

# ASSAY_EXPLANATION: protein stability index of a GFP-peptide fusion (yeast GPS) (PSI 1-4); higher = more stable; sorted into four equal gates, so the index is relative within each strain
# TEST_CONTEXT: san1∆
MEASURED_ENDPOINT: protein stability index
Enter the number alone.

Which protein stability index reading was recorded for the sequence IKLSLKDKTKNISAEII [SMC4] ?
3.04

Which protein stability index reading was recorded for the sequence TKEKVNGASVPINLHPS [RPL26A] ?
2.92

Which protein stability index reading was recorded for the sequence ECADLWPRVASNSGVVV [RPL23A] ?
3.06

Which protein stability index reading was recorded for the sequence TPDASKPSFSFGVPNSS [YLR335W/NUP2] ?
3.07

Which protein stability index reading was recorded for the sequence KKRKAGRPRGRPKKVKL [SNF2] ?
2.96

Which protein stability index reading was recorded for the sequence SEEIDSLNEDVEEIKLQ [SMC2] ?
2.94

Which protein stability index reading was recorded for the sequence NIVDSSAAGNKAIPTFS [YIL149C/MLP2] ?
3

====

# ASSAY_EXPLANATION: protein stability index of a GFP-peptide fusion (yeast GPS) (PSI 1-4); higher = more stable; sorted into four equal gates, so the index is relative within each strain
# TEST_CONTEXT: san1∆
Could you label it YES if measured protein stability index is 3 or higher, and NO otherwise?

Could you tell me if the measured protein stability index of ENNYKKRLLGTAFKSSP [RPS23A] reaches 3 or more?
NO

Could you tell me if the measured protein stability index of SVVAKQLLNGQKIVVVR [RPL16A] reaches 3 or more?
NO

Could you tell me if the measured protein stability index of DENPDLLGYTGIPTDKG [PRE8] reaches 3 or more?
NO

Could you tell me if the measured protein stability index of VLIDLLNWFRTTNMNVN [RGR1] reaches 3 or more?
YES

Could you tell me if the measured protein stability index of TKFQTTDRESYPRLQDP [YCS4] reaches 3 or more?
YES

Could you tell me if the measured protein stability index of VNDEEEHKQLVAEIVQN [RPC82] reaches 3 or more?
NO

Could you tell me if the measured protein stability index of SSSIKSTGPTGAVSLNP [RRP4] reaches 3 or more?
YES

Could you tell me if the measured protein stability index of PALESSPVTGDNSPSED [SNF2] reaches 3 or more?
YES

Could you tell me if the measured protein stability index of NRANVSKDELREKLAEV [RPS24A] reaches 3 or more?
YES

Could you tell me if the measured protein stability index of FVPVPSLAGFHKVQTKL [RPS7A] reaches 3 or more?
NO

Could you tell me if the measured protein stability index of LHYTPIEDLWQFLYEKH [RPC82] reaches 3 or more?
NO

Could you tell me if the measured protein stability index of KVGEDIAKATKEFKGIK [RPL12A] reaches 3 or more?
YES

Could you tell me if the measured protein stability index of VRLLCRSDGMGNVLLNA [YLR335W/NUP2] reaches 3 or more?
NO

Could you tell me if the measured protein stability index of FRGARKNKGLVVSPYDY [DIB1] reaches 3 or more?
NO

Could you tell me if the measured protein stability index of THSYNFMRQNLEWNMAN [RPC82] reaches 3 or more?
NO

Could you tell me if the measured protein stability index of VYKFMSLAKSSALWSSR [ECM29] reaches 3 or more?
NO

Could you tell me if the measured protein stability index of KPLFDFGKTGDQKETKK [YOR098C/NUP1] reaches 3 or more?
NO

Could you tell me if the measured protein stability index of PTKAAQRARDQDSIDIS [GAL11] reaches 3 or more?
YES

Could you tell me if the measured protein stability index of RKCQFRTPDSISVNSSS [POP1] reaches 3 or more?
NO

Could you tell me if the measured protein stability index of NKLLRRKLMEMENILQR [YIL149C/MLP2] reaches 3 or more?
YES

Could you tell me if the measured protein stability index of GGGAARRQAVDVSPLRR [RPS5] reaches 3 or more?
NO

Could you tell me if the measured protein stability index of TTEMLDKLMVTSIRSTP [MED6] reaches 3 or more?
NO

Could you tell me if the measured protein stability index of SLLGGFDENIARDIISH [PCI8] reaches 3 or more?
NO

Could you tell me if the measured protein stability index of PATTSQMAKDVTTFLNW [CYT1] reaches 3 or more?
NO

Could you tell me if the measured protein stability index of FGPKKENRKKDESDSEN [YLR335W/NUP2] reaches 3 or more?
NO
